# Test system: CaR-1 (Colorectal Carcinoma)
# experiment_description: combination Emax (second highest fraction inhibited in the dose matrix, 72 h); higher = more inhibition; extreme values may be limits of the assay
quantity_name: combination Emax
Field format: numeric only.

molecule	combination Emax
CN(CCO)CC[C@H](CSc1ccccc1)Nc1ccc(S(=O)(=O)NC(=O)c2ccc(N3CCC([C@@H](O)c4ccccc4-c4ccc(Cl)cc4)CC3)cc2)cc1S(=O)(=O)C(F)(F)F [AZD4320] + C[C@@H]1COCCN1C2=NC(=NC(=C2)C3(CC3)[S@](=N)(=O)C)C4=C5C=CNC5=NC=C4 [AZD6738] (first compound max 1 µM, 7x7, partner max 10 µM)	0.514
CN(CCO)CC[C@H](CSc1ccccc1)Nc1ccc(S(=O)(=O)NC(=O)c2ccc(N3CCC([C@@H](O)c4ccccc4-c4ccc(Cl)cc4)CC3)cc2)cc1S(=O)(=O)C(F)(F)F [AZD4320] + Cc1cc2ncnn2cc1Nc1ncc2c(n1)n(C1CCOCC1)c(=O)n2C [AZD7648] (first compound max 1 µM, 7x7, partner max 10 µM)	0.125
NC1(C(=O)N[C@@H](CCO)c2ccc(Cl)cc2)CCN(c2ncnc3[nH]ccc23)CC1 [Capivasertib] + CCN(CCO)CCCOc1ccc2c(Nc3cc(CC(=O)Nc4cccc(F)c4)[nH]n3)ncnc2c1 [AZD2811] (first compound max 10 µM, 7x7, partner max 1 µM)	0.501
CC1(C)CCC(CN2CCN(c3ccc(C(=O)NS(=O)(=O)c4ccc(NCC5CCOCC5)c([N+](=O)[O-])c4)c(Oc4cnc5[nH]ccc5c4)c3)CC2)=C(c2ccc(Cl)cc2)C1 [Venetoclax] + CN(C)CCCOc1ccc(-c2ccc3ncc4c(c3c2)n(C2CCOCC2)c(=O)n4C)cn1 [AZD0156] (first compound max 1 µM, 7x7, partner max 1 µM)	0.145

Notebook: COc1cccc(OCCCN)c1-c1cc(Nc2cnc(C#N)cn2)n[nH]1 [Prexasertib] + C=CCn1c(=O)c2cnc(Nc3ccc(N4CCN(C)CC4)cc3)nc2n1-c1cccc(C(C)(C)O)n1 [AZD1775] (first compound max 1 µM, partner max 1 µM) , combination Emax read as 0.797

----------
# System: HuP-T4 (Pancreatic Carcinoma)
# experiment_description: combination Emax (second highest fraction inhibited in the dose matrix, 72 h); higher = more inhibition; extreme values may be limits of the assay
Each entry below carries its reported combination Emax.
Field format: numeric only.

compound	combination Emax
Cn1cnc2c(F)c(Nc3ccc(Br)cc3Cl)c(C(=O)NOCCO)cc21 [Selumetinib] + CCN(CCO)CCCOc1ccc2c(Nc3cc(CC(=O)Nc4cccc(F)c4)[nH]n3)ncnc2c1 [AZD2811] (first compound max 10 µM, 7x7, partner max 1 µM)	0.421

Here's the next entry for you.
Notebook: COc1cccc2c1C(=O)c1c(O)c3c(c(O)c1C2=O)C[C@@](O)(C(=O)CO)C[C@@H]3O[C@H]1C[C@H](N)[C@H](O)[C@H](C)O1 [Doxorubicin] + Cc1cc2ncnn2cc1Nc1ncc2c(n1)n(C1CCOCC1)c(=O)n2C [AZD7648] (first compound max 1 µM, 7x7, partner max 10 µM) , combination Emax read as 0.657

----------
# Tested on: HCC1806 (Breast Carcinoma)
# experiment_description: combination Emax (second highest fraction inhibited in the dose matrix, 72 h); higher = more inhibition; extreme values may be limits of the assay
Give Condition met when the value for combination Emax is at least 0.6. Give Condition not met when it is less.

molecule	assigned_class
C[C@@H]1COCCN1c1cc(C2([S@](C)(=N)=O)CC2)nc(-c2ccnc3[nH]ccc23)n1 [AZD6738] + O=C(c1cc(Cc2n[nH]c(=O)c3ccccc23)ccc1F)N1CCN(C(=O)C2CC2)CC1 [Olaparib] (first compound max 10 µM, 7x7, partner max 10 µM)	Condition met
Cn1cnc2c(F)c(Nc3ccc(Br)cc3Cl)c(C(=O)NOCCO)cc21 [Selumetinib] + C=CCn1c(=O)c2cnc(Nc3ccc(N4CCN(C)CC4)cc3)nc2n1-c1cccc(C(C)(C)O)n1 [AZD1775] (first compound max 10 µM, partner max 1 µM)	Condition met
CC1(C)CCC(CN2CCN(c3ccc(C(=O)NS(=O)(=O)c4ccc(NCC5CCOCC5)c([N+](=O)[O-])c4)c(Oc4cnc5[nH]ccc5c4)c3)CC2)=C(c2ccc(Cl)cc2)C1 [Venetoclax] + C1CN(CCC1(C(=O)N[C@@H](CCO)C2=CC=C(C=C2)Cl)N)C3=NC=NC4=C3C=CN4 [Capivasertib] (first compound max 1 µM, 7x7, partner max 3 µM)	Condition not met

-- ask Determine whether this molecule has combination Emax no lower than 0.6: CN(CCO)CC[C@H](CSc1ccccc1)Nc1ccc(S(=O)(=O)NC(=O)c2ccc(N3CCC([C@@H](O)c4ccccc4-c4ccc(Cl)cc4)CC3)cc2)cc1S(=O)(=O)C(F)(F)F [AZD4320] + C[C@@H]1COCCN1C2=NC(=NC(=C2)C3(CC3)[S@](=N)(=O)C)C4=C5C=CNC5=NC=C4 [AZD6738] (first compound max 1 µM, 7x7, partner max 10 µM)
-- reply Condition met

----------
# Tested on: NCI-H82 (Small Cell Lung Carcinoma);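 further: after 72 h of two-drug dosing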
# experiment_description: Bliss excess, mean over the matrix (fraction); higher = more synergy
Each entry below carries its reported Bliss excess.

Some compounds with known Bliss excess results, for comparison:
compound	Bliss excess
COc1cccc(OCCCN)c1-c1cc(Nc2cnc(C#N)cn2)n[nH]1 [Prexasertib] + CCc1c2c(nc3ccc(O)cc13)-c1cc3c(c(=O)n1C2)COC(=O)[C@]3(O)CC [SN-38] (first compound max 1 µM, 7x7, partner max 0.3 µM)	0.0347
N#Cc1cnc(Nc2cc(NC[C@H]3CNCCO3)c(C(F)(F)F)cn2)cn1 [SRA737] + CCc1c2c(nc3ccc(O)cc13)-c1cc3c(c(=O)n1C2)COC(=O)[C@]3(O)CC [SN-38] (first compound max 10 µM, 7x7, partner max 0.3 µM)	0.0325
COc1cccc(OCCCN)c1-c1cc(Nc2cnc(C#N)cn2)n[nH]1 [Prexasertib] + C[C@@H]1COCCN1C2=NC(=NC(=C2)C3(CC3)[S@](=N)(=O)C)C4=C5C=CNC5=NC=C4 [AZD6738] (first compound max 1 µM, 7x7, partner max 10 µM)	-0.0186

Notebook: Cc1c2c(nn1C)CSCc1cc(n(C)n1)CSc1cc(c3ccccc3c1)OCCCc1c(C(=O)O)n(C)c3c-2c(Cl)ccc13 [AZD5991] + CN(C)CCCOc1ccc(-c2ccc3ncc4c(c3c2)n(C2CCOCC2)c(=O)n4C)cn1 [AZD0156] (first compound max 1 µM, 7x7, partner max 1 µM) , Bliss excess read as -0.0207

Notebook: C=CCn1c(=O)c2cnc(Nc3ccc(N4CCN(C)CC4)cc3)nc2n1-c1cccc(C(C)(C)O)n1 [AZD1775] + Nc1ccn([C@@H]2O[C@H](CO)[C@@H](O)C2(F)F)c(=O)n1 [Gemcitabine] (first compound max 1 µM, partner max 0.3 µM) , Bliss excess read as -0.0404

Notebook: C[C@@H](Oc1cc(-c2cnn(C3CCNCC3)c2)cnc1N)c1c(Cl)ccc(F)c1Cl [Crizotinib] + CC1=C(C(=CC=C1)Cl)NC(=O)C2=CN=C(S2)NC3=CC(=NC(=N3)C)N4CCN(CC4)CCO [Dasatinib] (first compound max 10 µM, 7x7, partner max 2 µM) , Bliss excess read as -0.0642

Notebook: C[C@@H](c1ccc2nccn2c1)n1nnc2ncc(-c3cnn(C)c3)nc21 [Savolitinib] + Cc1c2c(nn1C)CSCc1cc(n(C)n1)CSc1cc(c3ccccc3c1)OCCCc1c(C(=O)O)n(C)c3c-2c(Cl)ccc13 [AZD5991] (first compound max 1 µM, 7x7, partner max 1 µM) , Bliss excess read as -0.0763

----------
Each entry below carries its reported combination Emax.
# System: ES4 (Ewing's Sarcoma)
# experiment_description: combination Emax (second highest fraction inhibited in the dose matrix, 72 h); higher = more inhibition; extreme values may be limits of the assay
Field format: numeric only.

compound	combination Emax
NC1(C(=O)N[C@@H](CCO)c2ccc(Cl)cc2)CCN(c2ncnc3[nH]ccc23)CC1 [Capivasertib] + Cn1cnc2c(F)c(Nc3ccc(Br)cc3Cl)c(C(=O)NOCCO)cc21 [Selumetinib] (first compound max 10 µM, 7x7, partner max 10 µM)	0.398
Cc1c2c(nn1C)CSCc1cc(n(C)n1)CSc1cc(c3ccccc3c1)OCCCc1c(C(=O)O)n(C)c3c-2c(Cl)ccc13 [AZD5991] + CC1(C)CCC(CN2CCN(c3ccc(C(=O)NS(=O)(=O)c4ccc(NCC5CCOCC5)c([N+](=O)[O-])c4)c(Oc4cnc5[nH]ccc5c4)c3)CC2)=C(c2ccc(Cl)cc2)C1 [Venetoclax] (first compound max 1 µM, 7x7, partner max 1 µM)	0.147

Let me check: NC1(C(=O)N[C@@H](CCO)c2ccc(Cl)cc2)CCN(c2ncnc3[nH]ccc23)CC1 [Capivasertib] + C[C@@H]1COCCN1C2=NC(=NC(=C2)C3(CC3)[S@](=N)(=O)C)C4=C5C=CNC5=NC=C4 [AZD6738] (first compound max 10 µM, 7x7, partner max 10 µM) , system ES4 (Ewing's Sarcoma), measured combination Emax is 0.851
